Quick reference for GI50 among some compounds
test system: COLO 205 colon; test: NCI tumour cell line growth inhibition, 48 h

Name the reported GI50 value associated with the compound `O=C(NO)c1ccc(CNc2cccc3nc(C4CC4)n(-c4ccccc4)c(=O)c23)cc1`
2220 nM

Name the reported GI50 value associated with the compound `Nc1cc(C(F)(F)F)c(-c2nc(N3CCOCC3)nc(N3CCOCC3)n2)cn1`
265 nM

Name the reported GI50 value associated with the compound `COc1ccc(-c2c(Nc3ccccn3)nc3c(C4=CCCCC4)c(-c4ccccc4)[nH]n3c2=O)cc1`
2340 nM

Name the reported GI50 value associated with the compound `CCOC(=O)C#Cc1c(C(=O)OCC)nnn1[C@@H]1O[C@H](COC)[C@@H](OC)[C@H]1OC`
1940 nM

Name the reported GI50 value associated with the compound `COc1cc(/C=C/C(=O)c2nc3cc(F)ccc3nc2C)cc(OC)c1OC`
7560 nM

Name the reported GI50 value associated with the compound `N#C[Se]CCN1C(=O)c2ccccc2C1=O`
3070 nM

Name the reported GI50 value associated with the compound `O=C1NC(=O)N(S(=O)(=O)c2cc(C(=O)Nc3ccc(Cl)cc3)c(Cl)cc2S)S(=O)(=O)N1`
11000 nM

---

Quick reference for TGI among some molecules
tested on: KM20L2 colon; assay: NCI tumour cell line growth inhibition, 48 h

Checklist item: TGI tested on KM20L2 colon, entry `C=C(C)c1nc(Oc2ccccc2)nc(Oc2ccccc2)n1` , value?
26.7 µM

Checklist item: TGI tested on KM20L2 colon, entry Cc1ccccc1NC(=O)C1C(=O)N(c2ccccc2C)C(=O)/C1=N\NC(N)=O (configuration not stated) , value?
> 100 µM

Checklist item: TGI tested on KM20L2 colon, entry `CC1=N/C(=C\c2ccc(C)cc2)C(=O)O1` , value?
> 100 µM

Checklist item: TGI tested on KM20L2 colon, entry COc1ccc(C(C)Nc2cc(OC)c(OC)c(OC)c2)cc1 (configuration not stated) , value?
7.3 µM

---

test system: TK-10 renal; assay: NCI tumour cell line growth inhibition, 48 h; in the data active means GI50 below about 0.43 µM; inactive means the rest
Permitted responses: active, inactive

Cc1cccc(Oc2ccc(Nc3ncnc4ccc(NC(=O)CN(C)C)cc34)cc2Cl)c1	inactive
O=C(O)CSc1cc(NS(=O)(=O)c2ccc(Br)cc2)c2ccccc2c1O	inactive
CC1=C(C(=O)Nc2ccc3[nH]ncc3c2)C(c2ccc(F)cc2)N=C(c2ccc(C(F)(F)F)nc2)N1 (configuration not stated)	inactive
COc1cc2c3c(n(CCCN)c(=O)c2cc1OC)-c1ccc(N)cc1C3=O	inactive
COc1cc2c(cc1C)NC(=O)/C2=C\c1ccc(Oc2ccccc2)cc1	inactive
C/C(=C\c1csc(C)n1)[C@@H]1C[C@@H]2O[C@]2(C)CCC[C@H](C)[C@H](O)[C@@H](C)C(=O)C(C)(C)[C@@H](O)CC(=O)N1	active

What is the recorded call for this compound in the test? `OCc1ccc(N2CCc3ccc(F)cc3C2)cc1Cl`
active

What is the recorded call for this compound in the test? O=C1NC(=O)C2C3C=CC(C12)C1C2C(=O)NC(=O)C2C31 (configuration not stated)
inactive

What is the recorded call for this compound in the test? `CCN1CCN(CC(=O)Nc2nc3ccc(NCc4ccc(Br)cc4)cc3s2)CC1`
inactive

What is the recorded call for this compound in the test? `COc1ccc(-n2c(=O)c3ccccc3n(Cc3ccc(C(=O)NO)cc3)c2=O)cc1`
inactive

What is the recorded call for this compound in the test? `FC(F)(F)c1cccc(CNC2CCN(CCc3ccccc3)CC2)c1`
inactive

What is the recorded call for this compound in the test? `COc1cc2c(Oc3ccc(-c4cnc(Nc5ccc(F)cc5)n(C)c4=O)cc3F)ccnc2cc1OCCCN1CCOCC1`
inactive
